Values from ChEMBL document CHEMBL2086249

Assay Notes: AUC (0 to 24 hrs) in Beagle dog at 50 mg/kg
Assay type: ADME, organism-based, Canis lupus familiaris
Parameters: time < 24 hr, dose 50 mg/kg
Run Parameters: plasma
Property Measured: AUC(0-t) at 24 h (µM·h)
Numbers only, in µM·h.

# AUC(0-t) at 24 h lookup, item CC(C)c1nc(N2CCN(c3ncc(OCc4ccncc4C#N)cn3)[C@H](C)C2)no1
119

---

Assay Notes: AUC (0 to 12 hrs) in C57BL6 mouse at 100 mg/kg
Type: ADME, organism-based
Design: time < 12 hr, dose 100 mg/kg
Run Parameters: plasma
Property Measured: AUC(0-t) at 12 h (µM·h)
Give bare numbers, in µM·h.

Reported AUC(0-t) at 12 h for CC(C)c1nc(N2CCN(c3ncc(OCc4ccncc4C#N)cn3)[C@H](C)C2)no1 : what is it?
42

---

Assay Notes: AUC (0 to 24 hrs) in Han Wistar rat at 100 mg/kg
Assay type: ADME, organism-based
Set-up: time < 24 hr, dose 100 mg/kg
Run Parameters: plasma
Property Measured: AUC(0-t) at 24 h (µM·h)
Give bare numbers, in µM·h.

Report AUC(0-t) at 24 h for CC(C)c1nc(N2CCN(c3ncc(OCc4ccncc4C#N)cn3)[C@H](C)C2)no1 please.
97

---

Assay Notes: Oral bioavailability in C57BL6 mouse at 5 mg/kg
Type: ADME, organism-based
Run Parameters: in vivo
Property Measured: bioavailability (%)
Answers are plain numbers, in %.

Sample CC(C)c1nc(N2CCN(c3ncc(OCc4ccncc4C#N)cn3)[C@H](C)C2)no1 — what was its bioavailability?
22

---

Assay Notes: Volume of distribution at steady state in Han Wistar rat at 2 mg/kg, iv and 5 mg/kg, po
Assay type: ADME, organism-based
Run Parameters: in vivo, read-out: Vdss
Property Measured: Vd
Include the unit after the number when you answer.

Entry CC(C)c1nc(N2CCN(c3ncc(OCc4ccncc4C#N)cn3)[C@H](C)C2)no1 has what Vd?
5.1 L/kg

---

Assignment: determine reported microsomal CLint for the given molecules.
Assay Notes: Intrinsic clearance in human liver microsomes
Format: ADME, Microsome
Run Parameters: read-out: CLH
Give bare numbers, in µL/min/mg.

CC(C)(C)OC(=O)N1CCN(c2ncc(-c3ccc(OCC#N)cc3)cn2)CC1 | 259

Attention now turns to another entry.
What value of microsomal CLint has been reported for the following molecule? CC(C)(C)OC(=O)N1CCN(c2ncc(OCc3ccc(S(C)(=O)=O)cc3)cn2)CC1
47

---

Assay Notes: Oral bioavailability in Beagle dog at 13 mg/kg
Format: ADME, organism-based, Canis lupus familiaris
Run Parameters: in vivo
Property Measured: bioavailability (%)
Give bare numbers, in %.

May I ask what bioavailability has been recorded for CC(C)c1nc(N2CCN(c3ncc(OCc4ccncc4C#N)cn3)[C@H](C)C2)no1 ?
24

---

Assay Notes: Intrinsic clearance in mouse hepatocytes assessed per million cells
Format: ADME, cell-based, Hepatocyte
Run Parameters: read-out: CLH
Property Measured: hepatocyte CLint (µL/min/1e6 cells)
Answers are plain numbers, in µL/min/1e6 cells.

Looking for the measured hepatocyte CLint of CC(C)c1nc(N2CCN(c3ncc(OCc4ccncc4C#N)cn3)[C@H](C)C2)no1 , can you help?
67

---

Assay Notes: AUC (0 to 24 hrs) in Han Wistar rat at 5 mg/kg
Format: ADME, organism-based
Set-up: time < 24 hr, dose 5 mg/kg
Run Parameters: plasma
Property Measured: AUC(0-t) at 24 h (µM·h)
Answers are plain numbers, in µM·h.

What does the data say about its AUC(0-t) at 24 h? Entry: CC(C)c1nc(N2CCN(c3ncc(OCc4ccncc4C#N)cn3)[C@H](C)C2)no1
2.7

---

Assay Notes: Half life in C57BL6 mouse at 5 mg/kg, po
Assay type: ADME, organism-based
Set-up: dose 5 mg/kg, route oral
Run Parameters: in vivo
Property Measured: half-life (h)
Numbers only, in h.

Which half-life reading was recorded for the compound CC(C)c1nc(N2CCN(c3ncc(OCc4ccncc4C#N)cn3)[C@H](C)C2)no1 ?
1

---

Assay Notes: AUC (0 to 12 hrs) in C57BL6 mouse at 5 mg/kg
Type: ADME, organism-based
Design: time < 12 hr, dose 5 mg/kg
Run Parameters: plasma
Property Measured: AUC(0-t) at 12 h (µM·h)
Give bare numbers, in µM·h.

Entry CC(C)c1nc(N2CCN(c3ncc(OCc4ccncc4C#N)cn3)[C@H](C)C2)no1 : reported AUC(0-t) at 12 h = ?
0.7

---

Assay Notes: Half life in Beagle dog at 13 mg/kg, po
Type: ADME, organism-based, Canis lupus familiaris
Design: dose 13 mg/kg, route oral
Run Parameters: in vivo
Property Measured: half-life (h)
Answers are plain numbers, in h.

Give its half-life value. Item: CC(C)c1nc(N2CCN(c3ncc(OCc4ccncc4C#N)cn3)[C@H](C)C2)no1
5

---

Assay Notes: Plasma clearance in Han Wistar rat at 2 mg/kg, iv and 5 mg/kg, po
Type: ADME, organism-based
Property Measured: clearance (mL/min/kg)
One number for each entry, in mL/min/kg.

Can you share its clearance? I mean this molecule: CC(C)c1nc(N2CCN(c3ncc(OCc4ccncc4C#N)cn3)[C@H](C)C2)no1
28

---

Assay Notes: Cmax in C57BL6 mouse at 30 mg/kg
Type: ADME, organism-based
Parameters: dose 30 mg/kg
Run Parameters: in vivo
Property Measured: Cmax (µM)
Give bare numbers, in µM.

Look up Cmax for this molecule: CC(C)c1nc(N2CCN(c3ncc(OCc4ccncc4C#N)cn3)[C@H](C)C2)no1
3.5

---

Assay Notes: AUC (0 to 24 hrs) in Beagle dog at 10 mg/kg
Assay type: ADME, organism-based, Canis lupus familiaris
Parameters: time < 24 hr, dose 10 mg/kg
Run Parameters: plasma
Property Measured: AUC(0-t) at 24 h
# include the unit after the value

What does the record list as AUC(0-t) at 24 h for CC(C)c1nc(N2CCN(c3ncc(OCc4ccncc4C#N)cn3)[C@H](C)C2)no1 ?
11 µM·h

---

Assay Notes: Intrinsic clearance in dog hepatocytes assessed per million cells
Type: ADME, cell-based, Canis lupus familiaris, Hepatocyte
Run Parameters: read-out: CLH
Property Measured: hepatocyte CLint
The answer consists of two parts: a number and, after it, its unit.

// hepatocyte CLint lookup, key: CC(C)c1nc(N2CCN(c3ncc(OCc4ccncc4C#N)cn3)[C@H](C)C2)no1
5.6 µL/min/1e6 cells

---

Assay Notes: Cmax in Beagle dog at 5 mg/kg
Assay type: ADME, organism-based, Canis lupus familiaris
Set-up: dose 5 mg/kg
Run Parameters: in vivo
Property Measured: Cmax
Answer format reminder: number followed by unit.

Given the entry CC(C)c1nc(N2CCN(c3ncc(OCc4ccncc4C#N)cn3)[C@H](C)C2)no1 , report its measured Cmax.
2500 nM

---

Assay Notes: AUC (0 to 24 hrs) in Beagle dog at 1 mg/kg
Format: ADME, organism-based, Canis lupus familiaris
Design: time < 24 hr, dose 1 mg/kg
Run Parameters: plasma
Property Measured: AUC(0-t) at 24 h (µM·h)
Give bare numbers, in µM·h.

Sample CC(C)c1nc(N2CCN(c3ncc(OCc4ccncc4C#N)cn3)[C@H](C)C2)no1 — what was its AUC(0-t) at 24 h?
4

---

Assay Notes: Cmax in Beagle dog at 10 mg/kg
Type: ADME, organism-based, Canis lupus familiaris
Set-up: dose 10 mg/kg
Run Parameters: in vivo
Property Measured: Cmax (nM)
Numbers only, in nM.

Return reported Cmax; argument: CC(C)c1nc(N2CCN(c3ncc(OCc4ccncc4C#N)cn3)[C@H](C)C2)no1
1300
